# experimentalSystem: human AT1 receptor (Homo sapiens, UniProt P30556)
# Construct: expressed in transfected cells; host or cells: CHO-K1
# Sequence (P30556 1-359): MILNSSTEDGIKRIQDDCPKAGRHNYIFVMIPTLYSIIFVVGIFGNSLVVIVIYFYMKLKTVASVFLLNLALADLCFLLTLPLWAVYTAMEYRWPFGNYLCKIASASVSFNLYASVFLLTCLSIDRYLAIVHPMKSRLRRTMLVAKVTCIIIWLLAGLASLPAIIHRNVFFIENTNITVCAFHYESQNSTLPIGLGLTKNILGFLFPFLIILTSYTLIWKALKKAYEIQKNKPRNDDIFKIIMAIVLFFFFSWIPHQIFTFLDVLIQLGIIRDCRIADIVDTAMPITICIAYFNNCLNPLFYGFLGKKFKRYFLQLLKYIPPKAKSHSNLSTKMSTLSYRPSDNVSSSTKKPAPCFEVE
# assayText: Binding assay using human AT1 receptor-expressing CHO-K1 cell membrane fraction ([125I]-angiotensin II)
# experimentalParameters: 22.5 pM [125I]-angiotensin II, 9 μg AT1 membrane, 1 hr room temperature; read-out: AT1 receptor binding inhibitory action (IC50 (nM))
# Protocol: The membrane fraction for human AT1 receptor binding assay was prepared as follows. CHO-K1 cell capable of stable expression of human AT1 receptor was cultured, recovered, suspended in homogenize buffer (10 mM NaHCO3 (pH 7.4), 5 mM EDTA, 1×Complete EDTA free) [manufactured by Roche, Switzerland], and homogenized. The homogenate was centrifuged at low-speed (900×g, 10 min, 4° C.), and the supernatant was recovered and ultracentrifuged (90,000×g, 1 hr, 4° C.). […]
quantity: IC50 (nM)
// return numeric value only (unit: nM, not printed)

Here is how some compounds turned out for IC50.
INSERT INTO measurements (compound, endpointresult) VALUES
  ('CCCc1nc(CC)n(-c2ccc(OC3(COC)CCCC3)cc2)c(=O)c1Cc1ccc(-c2ccccc2-c2noc(=O)[nH]2)cc1', 1.8),
  ('CCCc1nc(C)c(-c2ccc(OC(C)(C)C)cc2)c(=O)n1Cc1ccc(-c2ccccc2-c2noc(O)n2)cc1F', 2),
  ('CCCc1nc(CC)n(-c2ccc(OC(C)(C)C(C)O)cc2)c(=O)c1Cc1ccc(-c2ccccc2-c2noc(=O)[nH]2)cc1 (centres unmarked)', 1.3),
  ('CCCc1nc(CC)n(-c2ccc(O[C@H]3CC[C@@H](O)CC3)cc2)c(=O)c1Cc1ccc(-c2ccccc2-c2noc(=O)[nH]2)cc1', 1),
  ('CCCc1nc(C)n(-c2ccc(OC(C)CF)cc2)c(=O)c1Cc1ccc(-c2ccccc2-c2noc(=O)[nH]2)cc1 (centres unmarked)', 1.8);

Any idea what IC50 was measured for `CCCc1nc(C)n(-c2ccc3c(c2)C(=O)CC(C)(C)O3)c(=O)c1Cc1ccc(-c2ccccc2-c2noc(=O)[nH]2)cc1` ?
1.8

Any idea what IC50 was measured for `CCCc1nc(CC)c(-c2ccc(OCC)nc2)c(=O)n1Cc1ccc(-c2ccccc2-c2noc(O)n2)cc1` ?
2.2

====

# experimentalSystem: PPARγ (Homo sapiens)
# Construct: expressed in transfected cells; host or cells: CHO-K1
# Sequence (P37231 29-505): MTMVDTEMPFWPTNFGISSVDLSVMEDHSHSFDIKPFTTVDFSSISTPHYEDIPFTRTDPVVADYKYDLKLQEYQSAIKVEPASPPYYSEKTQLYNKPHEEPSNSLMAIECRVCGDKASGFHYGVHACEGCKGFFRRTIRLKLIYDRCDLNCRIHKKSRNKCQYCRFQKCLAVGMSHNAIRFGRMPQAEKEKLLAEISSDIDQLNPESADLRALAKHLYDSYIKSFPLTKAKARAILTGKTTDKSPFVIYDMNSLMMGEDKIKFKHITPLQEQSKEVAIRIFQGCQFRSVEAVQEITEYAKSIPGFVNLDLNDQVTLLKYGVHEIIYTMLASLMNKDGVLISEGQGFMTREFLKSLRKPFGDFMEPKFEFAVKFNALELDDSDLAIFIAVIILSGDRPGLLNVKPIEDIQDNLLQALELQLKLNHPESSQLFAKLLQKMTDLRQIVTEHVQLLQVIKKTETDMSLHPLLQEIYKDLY
# Sequence (P19793 whole entry partner): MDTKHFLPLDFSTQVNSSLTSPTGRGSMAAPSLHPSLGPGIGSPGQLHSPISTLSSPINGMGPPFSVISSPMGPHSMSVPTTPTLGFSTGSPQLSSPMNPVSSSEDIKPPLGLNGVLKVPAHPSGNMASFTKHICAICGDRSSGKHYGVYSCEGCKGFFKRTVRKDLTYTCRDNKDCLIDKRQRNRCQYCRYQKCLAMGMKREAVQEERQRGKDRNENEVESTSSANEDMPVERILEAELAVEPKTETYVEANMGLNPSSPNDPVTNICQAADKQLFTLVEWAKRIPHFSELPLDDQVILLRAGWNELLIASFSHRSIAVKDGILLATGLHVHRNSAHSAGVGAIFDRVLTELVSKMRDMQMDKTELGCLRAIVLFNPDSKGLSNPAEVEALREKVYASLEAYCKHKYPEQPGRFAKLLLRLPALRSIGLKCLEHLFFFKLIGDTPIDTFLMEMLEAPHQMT
# assayText: Evaluation of PPARγ activating action (luciferase reporter in PPARγ:RXRα:4ERPP/CHO-K1 cells)
# Format: cell-based
# experimentalParameters: CHO-K1, 24 h; test compound 10^−6 M; luciferase activity relative to control compound X (1 μM) = 100%, non-administration group = 0%; read-out: PPARγ activating action (activation % (10^−6 M))
quantity: activation at 1 µM (%)
// return numeric value only (unit: %, not printed)

Here is how some compounds turned out for activation at 1 µM.
INSERT INTO assay_data (compound, quantity, scaleunit, endpointresult) VALUES
  ('CCCc1nc(CC)n(-c2ccc(OC(C)C)c(F)c2)c(=O)c1Cc1ccc(-c2ccccc2-c2noc(=O)[nH]2)cc1', 'activation at 1 µM', '%', 53.7),
  ('CCCCc1nn(-c2ccc3c(c2)CC(C)(C)O3)c(=O)n1Cc1ccc(-c2ccccc2-c2noc(=O)[nH]2)cc1', 'activation at 1 µM', '%', 32.9),
  ('CCCc1nc(C)c(CC2CCCCO2)c(=O)n1Cc1ccc(-c2ccccc2-c2noc(=O)[nH]2)cc1 (stereo not shown)', 'activation at 1 µM', '%', 42.6),
  ('CCCc1nc(CC)c(-c2ccc(OC(C)C)nc2)c(=O)n1Cc1ccc(-c2ccccc2-c2noc(=O)[nH]2)cc1', 'activation at 1 µM', '%', 31.5);

Any idea what activation at 1 µM was measured for `CCCCc1nc(C)n(-c2ccccc2)c(=O)c1Cc1c(F)cc(-c2ccccc2-c2noc(=O)[nH]2)cc1F` ?
27.4

Any idea what activation at 1 µM was measured for CCCc1nc(C)n(-c2ccc(OC3CCCC(=O)CC3)cc2)c(=O)c1Cc1ccc(-c2ccccc2-c2noc(=O)[nH]2)cc1 (stereo not shown) ?
18.1

Any idea what activation at 1 µM was measured for `CCCCc1nc(C)n(Cc2ccccn2)c(=O)c1Cc1ccc(-c2ccccc2-c2noc(=O)[nH]2)cc1` ?
34.3
